# assay system: the molecule itself
# assay comment: AUC
Quick list: MW (global fit)/MW (calc., expected dimer mass) per entry.
// return a plain number; no unit text

KEEKQIEKELKQIEKELQAIEWRLAQLRKRLQALRKRKAQKRE (designed binder) [APHi fused to maltose binding protein (MBP)]	1.7
KRKKQKRKRAKQLRKRLQALEWQLAQIRKELQAAEKEEAQIEE (designed binder) [APHiii (APH3) fused to maltose binding protein (MBP)]	0.94
KEKKQLRKELKQLEKELQALRWRLAQIEKRLQAIRKRLAQKEE (designed binder) [APHiv fused to maltose binding protein (MBP)]	1.23

// moving on: another record for MW (global fit)/MW (calc., expected dimer mass)
Enquiry: Form field: reported MW (global fit)/MW (calc., expected dimer mass) of KQLKQIEKRLKQIEKRLQAKEWEKAQLRKELQALRKKLAQLRE (designed binder) [APHvi (APH4) fused to maltose binding protein (MBP)]
Return: 0.96
